system: MALME-3M melanoma; test: NCI-60 one-dose screen, 48 h; conditions: 10 µM unless noted
This is part of a sample that, as a whole, favours compounds with a hit. Of some 83,000 tested, about 20% had one in any assay. The source made the active and inactive calls. How the source made its calls: active means growth percent below 10; inactive means the rest.
Assign a class; possible classes are 1 (active), -1 (inactive)

Illustrative cases are given below, each with its answer.
> print(dat)
                                   compound             target  class.label
1  Cc1ccc2c(-n3nc(C#N)c(C#N)c3N)cc(=O)[nH]c2c1  MALME-3M melanoma           -1
2  O=C1/C=C/[C@@H](O)[C@@H]2C[C@@H](O)C[C@H]2/C=C/CCC[C@@H](O)CCO1  MALME-3M melanoma           -1
3  COc1cccc(/C=C/C(=O)c2cccc(Nc3nc(Nc4ccccc4)nc(Nc4ccccc4)n3)c2)c1  MALME-3M melanoma           -1
4  CC1CCN(C(=O)CCCl)c2ccccc21 (stereo not drawn)  MALME-3M melanoma           -1
5  COc1ccc(N2CCN(C(=O)c3sc4nc(C)c(Br)c(C)c4c3N)CC2)cc1  MALME-3M melanoma            1

INPUT: Any idea what this test logged for CCN1C(=O)N(CC)C2C1NN=c1s/c(=C3\C(=O)N(CC(C)C)c4ccccc43)c(=O)n12 (stereo not drawn) ?
OUTPUT: -1

INPUT: State the result this test recorded for CC1=C2[C@@H](CC1)[C@]1(C)O[C@@](C3CCCCC3)(C[C@H]1OC(=O)CO)[C@H]2OC(=O)/C=C/c1ccccc1 .
OUTPUT: -1

INPUT: Can you look up the reported call for COc1ccc(/C=C2\CN(C(=O)C(Cl)Cl)C/C(=C\c3ccc(OC)cc3)C2=O)cc1 for me?
OUTPUT: 1

INPUT: Record lookup: outcome of this test for Cc1ccc(-c2csc(N(C(=O)N3CCN(c4cc5c(cc4F)c(=O)c(C(=O)O)cn5C4CC4)CC3)c3ccccc3)n2)cc1 ?
OUTPUT: 1

INPUT: Could you kindly confirm the outcome this assay logged for O=C(N=Nc1c(O)[nH]c2ccccc12)Nc1ccc(F)cc1 ?
OUTPUT: -1

INPUT: Would you mind telling me which call this test gave N#C/C(=C\c1cn(Cc2ccccc2)c2ccccc12)C(=O)Nc1ncc(Cc2ccccc2Cl)s1 ?
OUTPUT: 1

INPUT: Which outcome was entered for the compound CCCCCCCCCCCCCCCCCCOc1ccccc1CC(=O)NCC[N+]1(C)CCCCC1 in this test?
OUTPUT: -1

INPUT: Outcome logged for Cc1ccc(N2C(=O)CCC2=O)cc1 in this assay:
OUTPUT: -1

---

test system: T-47D breast; assay: NCI-60 one-dose screen, 48 h (100 = growth as untreated, 0 = no growth, -100 = all killed); settings: 10 µM unless noted
Compounds without any hit were thinned out: in the full panel of roughly 83,000, 20% have a hit.
Listing: growth of selected compounds
Just the number please, in %, no unit attached.

Solved entries:
> print(dat)
                                smiles.code  value.type  result.unit  measured.value
1  CC1(C)N=C(N)N=C(N)N1c1ccc(CCCCc2ccccc2)c(Cl)c1      growth            %            15.8
2  Cc1cc(Nc2ccc(C(=O)N3CCCC3)cc2)nc(NCCCNc2ccnc3cc(Cl)ccc23)n1      growth            %            77.8
3       O=C1C(Nc2ccccn2)=C(I)C(=O)c2ncccc21      growth            %           -42.5

Let us move to another entry and its growth.
INPUT: Write down growth measured for item O=c1ccc(=O)n(-c2nc(-c3ccc([N+](=O)[O-])cc3)cs2)[nH]1
OUTPUT: 98.5

---

tested on: SF-268 CNS; assay: NCI-60 one-dose screen, 48 h (100 = growth as untreated, 0 = no growth, -100 = all killed); conditions: 10 µM unless noted
About 83,000 compounds went through this panel and 20% of them were active in at least one assay; those are over-represented in the sample as a whole.
Mark 1 for growth under 70%, -1 if at or over.

Study these solved cases before continuing.
> print(dat)
                                    compound  class.label
 1  O=C1c2ccccc2C(=O)c2c1c(C(=O)NCc1ccccc1)c1ccccn21           -1
 2  CCN1C(=O)N(CC)C2C1NN=c1s/c(=C3\C(=O)N(CCC(C)C)c4ccccc43)c(=O)n12 (configuration not stated)            1
 3  COc1cc(C(=O)c2c(-c3ccccc3)oc3c(OC)cccc23)cc(OC)c1OC            1
 4   Oc1c(CN2CCOCC2)cc(COCc2ccccc2)c2cccnc12            1
 5  Cc1ccc2nc(/C(C#N)=C(/CCCO)NC(Cc3ccccc3)C(=O)OCc3ccccc3)[nH]c(=O)c2c1 (configuration not stated)           -1
 6  Cc1nnc(-c2ccc3c(c2)nc(/C=C/c2ccccc2)n3C2CCCCC2)o1           -1
 7  Cc1ccc(C2CC(c3nc(-c4ccc(Cl)cc4)oc3C)=NN2C(=O)c2ccncc2)cc1 (configuration not stated)           -1
 8  O=C(Nc1ncc(Cc2cc(C(F)(F)F)ccc2Cl)s1)c1cccs1            1
 9  O=P(O)(O)OCC1OC(n2cnc3c(NCc4ccco4)ncnc32)C(O)C1O (configuration not stated)            1
10  CCOC(=O)c1c(C)nc2c(c1N)/C(=C/c1ccc(OC)cc1)C(=O)N2Cc1ccccc1            1

INPUT: Given O=C(N/N=C/c1cc(Cl)ccc1O)c1ccccc1Nc1ccnc(C(F)(F)F)c1 , is recorded growth strictly lower than 70%?
OUTPUT: 1

---

test system: MALME-3M melanoma; test: NCI-60 one-dose screen, 48 h; conditions: 10 µM unless noted
Compounds without any hit were thinned out: in the full panel of roughly 83,000, 20% have a hit. Calls of active or inactive are those of the source. The calls were made as follows: active = growth percent below 10; inactive = the rest.
Response enum: yes (1) for active, no (0) for inactive

Compound	Class label
COc1cc(OC)cc(-c2ccc(-c3ccc(C(=N)N)o3)o2)c1	no (0)
COc1cc(C(=O)n2nc(N3CCOCC3)c3cc(-n4cccc4)ccc32)cc(OC)c1OC	no (0)
Cc1cccc2c1C[C@@]1(C2=O)C(c2ccc(C(C)(C)C)cc2)=NOS1=O (stereo partly specified)	no (0)
CN1CCN(C(=O)C(C)(C)c2ccc(C(=O)Nc3cn4cc(-c5ccncc5)ccc4n3)cc2)CC1	yes (1)
CCOC(=O)c1c(C)c2c(n1Cc1ccccc1)CSCC2=O	yes (1)

INPUT: I'd appreciate the recorded outcome for Cc1ccc2nc(-c3ccc(C(=O)NNC(=S)Nc4ccccc4)cc3)[nH]c2c1 from this test.
OUTPUT: no (0)

INPUT: Please state the recorded outcome for this compound: Nn1c(=O)c(=O)[nH]c2c(cnn2-c2ccccc2)c1=O
OUTPUT: no (0)

INPUT: Which outcome was entered for the compound Cc1ccc(/C=C/C(=O)c2cccc(OCCCOc3cccc(C(=O)/C=C/c4ccc(C)cc4)c3)c2)cc1 in this test?
OUTPUT: no (0)

INPUT: GET /call?item= C=C1C(=O)O[C@H]2[C@H]1CC/C(COC(=O)CSCSCC(=O)OC/C1=C/CC[C@@]3(C)O[C@H]3[C@H]3OC(=O)C(=C)[C@@H]3CC1)=C\CC[C@@]1(C)O[C@@H]21 returns the recorded outcome of this test.
OUTPUT: yes (1)

---

tested on: MALME-3M melanoma; assay: NCI-60 one-dose screen, 48 h (100 = growth as untreated, 0 = no growth, -100 = all killed); conditions: 10 µM unless noted
This is part of a sample that, as a whole, favours compounds with a hit. Of some 83,000 tested, about 20% had one in any assay. The source made the active and inactive calls. The calls were made as follows: active = growth percent below 10; inactive = the rest.
Value type: growth

> print(dat)
                                smiles.code  value.type    measured.value
1  NS(=O)(=O)c1ccc(NC(=O)/C(=C\c2ccc(Cl)cc2Cl)NC(=O)c2ccccc2)cc1      growth  93.2% (inactive)
2  CN1CCN(c2ccc(NC(=O)c3cncnc3Nc3ccc(OCc4cccc(F)c4)c(Cl)c3)cc2)CC1      growth  78.4% (inactive)
3  Cc1ccc(Cl)cc1NC(=O)c1sc2nc3c(cc2c1N)C(=O)CCC3      growth  81.1% (inactive)

Next item in the queue.
INPUT: Complete the entry with growth for CN1C(=O)/C(=C2\SC(=Nc3ccccc3)N(Nc3ccccc3)C2=O)c2ccccc21
OUTPUT: 110% (inactive)

---

system: HOP-92 NSCLC; test: NCI-60 one-dose screen, 48 h; conditions: 10 µM unless noted
The panel holds about 83,000 compounds, 20% with a hit somewhere; the sample as a whole holds those more often. The source made the active and inactive calls. Rule for the calls: active = growth percent below 10; inactive = the rest.
Your answer must be one of the following: Y = active, N = inactive

Compound	Class label
CC1C=CC(OC(=O)C(C)(O)CCC(O)(C(=O)OC2CC(O)C(C(C)C)CC2(C)O)C(C)C)(C(C)C)CC1 (stereo not given)	Y

INPUT: For CCCCNc1cc(-c2cn[nH]c2-c2cc(C)cc(OC)c2)nc(-c2cccnc2)n1 , which call appears in the assay record?
OUTPUT: N
